Tested on: Leishmania donovani
Experiment: Antileishmanial activity against Leishmania donovani promastigotes after 72 hrs
Type: functional, organism-based
molecules and their reported IC50
Recorded endpoint: IC50 (µg/mL)

Structure	Uom	Value
CC[C@H]1CN2CCc3cc(OC)c(OC)cc3[C@@H]2C[C@@H]1C[C@H]1NCCc2cc(OC)c(OC)cc21	µg/mL	0.03
C[C@@H]1[C@H](O)[C@@H](C)/C=C/C=C/C=C/C=C/C=C/C=C/C=C/[C@H](O[C@@H]2O[C@H](C)[C@@H](O)[C@H](N)[C@@H]2O)C[C@@H]2O[C@](O)(C[C@@H](O)C[C@@H](O)[C@H](O)CC[C@@H](O)C[C@@H](O)CC(=O)O[C@H]1C)C[C@H](O)[C@H]2C(=O)O	µg/mL	0.17
